# Experiment Notes: qHTS assay for small molecule disruptors of the mitochondrial membrane potential (AID 720635)
# Condition Description: HepG2 mitochondrial membrane potential, Mito-MPS dye ratio; series mostly up to 83.2 µM
Results filed as inconclusive are left out. Active and inactive are the calls of the source. The call rests on the fitted dose curve; in most records, active means well fitted inhibition curve with a large enough effect in the signal ratio in the repeat runs; inconclusive means weak or mixed curves, or effect the other way; inactive means flat fitted curve, though single readings scatter; the % refers to the signal ratio.
Labels: active, inactive

- Compound: "CCCCCCCC/C=C\\CCCCCCCC(=O)NCc1ccc(O)c(OC)c1"
  Qualitative Label: "active"
- Compound: "CNCC[C@H](Oc1cccc2ccccc12)c1cccs1"
  Qualitative Label: "active"
- Compound: "Oc1ccc(-c2ccccc2)c(Cl)c1"
  Qualitative Label: "active"
- Compound: "CC(C)(c1cc(Br)c(OCCO)c(Br)c1)c1cc(Br)c(OCCO)c(Br)c1"
  Qualitative Label: "active"
- Compound: "CCN(CC)c1ccc(N)cc1"
  Qualitative Label: "active"
- Compound: "O=C1NC2CCCCN2C12CCN(CCCN1c3ccccc3CCc3ccc(Cl)cc31)CC2 (stereo not given)"
  Qualitative Label: "inactive"
- Compound: "CCOC(=O)C1=C(C)NC(C)=C(C(=O)OCC)C1c1ccccc1/C=C/C(=O)OC(C)(C)C"
  Qualitative Label: "active"
- Compound: "COc1cc(C=C2CCC/C(=C\\c3ccc(O)c(OC)c3)C2=O)ccc1O"
  Qualitative Label: "active"
- Compound: "CCCCCCCC/C=C\\CCCCCCCC(=O)OCCOC(=O)CCCCCCC/C=C\\CCCCCCCC"
  Qualitative Label: "active"
- Compound: "NC(=O)c1ccccc1N"
  Qualitative Label: "inactive"
- Compound: "CCCCCCCCCCCCCCCC"
  Qualitative Label: "inactive"
- Compound: "COc1cc(C(=O)NS(=O)(=O)c2ccccc2C)ccc1Cc1cn(C)c2ccc(NC(=O)OC3CCCC3)cc12"
  Qualitative Label: "active"
- Compound: "COC(=O)CC(C)CCC=C(C)C (stereo not given)"
  Qualitative Label: "inactive"
- Compound: "CCCCOc1ccc(C(=O)CCN2CCCCC2)cc1"
  Qualitative Label: "inactive"
- Compound: "CC1=C(/C=C/C(C)=C/C=C/C(C)=C\\C=O)C(C)(C)CCC1"
  Qualitative Label: "active"
- Compound: "C/C=C/C=N/NC(=O)c1ccncc1"
  Qualitative Label: "inactive"
- Compound: "CN(Cc1cc(Br)cc(Br)c1N)C1CCCCC1"
  Qualitative Label: "active"
- Compound: "O=C(Nc1ccc(Cl)cc1)Nc1ccc(Cl)c(C(F)(F)F)c1"
  Qualitative Label: "active"
- Compound: "CCN=C1C=CC(=C(c2ccc(N(CC)CC)cc2)c2ccc(N(CC)CC)cc2)c2ccccc21"
  Qualitative Label: "active"
- Compound: "CCNc1nc(NC(C)CC)nc(OC)n1 (stereo not given)"
  Qualitative Label: "inactive"
- Compound: "C=CCCCCCCC=C"
  Qualitative Label: "inactive"
- Compound: "Cc1cccc(Br)c1"
  Qualitative Label: "inactive"
- Compound: "CN1[C@@H]2CC[C@@H]1CC(OC(=O)C(CO)c1ccccc1)C2 (stereo not given in full)"
  Qualitative Label: "inactive"
- Compound: "CCCCCCCCCCCC(=O)N(CC)CC"
  Qualitative Label: "inactive"
- Compound: "NC1(c2ccc(-c3nc4ccn5c(=O)[nH]nc5c4cc3-c3ccccc3)cc2)CCC1"
  Qualitative Label: "active"

----------
# System Under Test: Nuclear receptor subfamily 1 group I member 2 (Homo sapiens)
# Experiment Notes: Human pregnane X receptor (PXR) small molecule agonists, qHTS assay (AID 1346982); further: nearly all actives have a fitted effect of over 35% in size; on activation: on the % scale 0 is the no-effect control and ±100 the full control effect
# Condition Description: PXR-Luc HepG2, CYP3A4 luciferase reporter, 24 h; series mostly up to 92.4 µM
Inconclusive results are not listed. Active and inactive are the calls of the source. Calls follow the shape of the dose curve; as a rule, active = well fitted activation curve with a large enough effect in the repeat runs; inconclusive = weak or mixed curves; inactive = no such curve, though single readings can be large or run the other way.
Labels: active, inactive

- Compound: "CC1(C)C(=O)N(CO)C(=O)N1CO"
  Qualitative Label: "inactive"
- Compound: "CC(C)=CCCC(C)O (stereo not given)"
  Qualitative Label: "inactive"
- Compound: "CCN(CC)CCOC(=O)C1(C2CCCCC2)CCCCC1"
  Qualitative Label: "active"
- Compound: "CNC(=O)c1cc(Oc2ccc(NC(=O)Nc3ccc(Cl)c(C(F)(F)F)c3)cc2)ccn1"
  Qualitative Label: "inactive"
- Compound: "Cc1ccc2ccc3cccc4ccc1c2c34"
  Qualitative Label: "inactive"
- Compound: "C#CC(O)CCC (stereo not given)"
  Qualitative Label: "inactive"
- Compound: "CCCCCCCCCCCC(=O)N(CC)CC"
  Qualitative Label: "active"
- Compound: "C=CC(C)C#N (stereo not given)"
  Qualitative Label: "inactive"
- Compound: "CC(=O)Nc1ccc(O)cc1"
  Qualitative Label: "inactive"
- Compound: "CCc1ccc(C)nc1"
  Qualitative Label: "inactive"
- Compound: "CCCCCCCCCCCCCCNCCO"
  Qualitative Label: "inactive"
- Compound: "CCCCCCCC(C)=O"
  Qualitative Label: "inactive"
- Compound: "CC1=CP(=O)(c2ccccc2)CC1 (stereo not given)"
  Qualitative Label: "inactive"
- Compound: "CCCCCCC(C)Nc1ccc(Nc2ccccc2)cc1 (stereo not given)"
  Qualitative Label: "active"
- Compound: "O[C@@H](c1cc(C(F)(F)F)nc2c(C(F)(F)F)cccc12)[C@H]1CCCCN1"
  Qualitative Label: "inactive"
- Compound: "Nc1ncnc2c1ncn2[C@@H]1O[C@H](COP(=O)(O)O)[C@@H](O)[C@H]1O"
  Qualitative Label: "inactive"
- Compound: "C(=C/c1ccccc1)/c1ccccc1"
  Qualitative Label: "inactive"
- Compound: "Clc1cccnc1"
  Qualitative Label: "inactive"
- Compound: "CCOC(=O)[C@@](C)(N)Cc1ccc(O)c(O)c1"
  Qualitative Label: "inactive"
- Compound: "COC(=O)[C@]1(C)CCC[C@@]2(C)[C@H]1CC=C1C=C(C(C)C)CC[C@@H]12"
  Qualitative Label: "active"
- Compound: "CCOC(=O)CN"
  Qualitative Label: "inactive"
- Compound: "CCCCOc1ccc(C(=O)CCN2CCCCC2)cc1"
  Qualitative Label: "active"
- Compound: "CCOC(=O)C1=C(C)NC(C)=C(C(=O)OCC)C1c1ccccc1/C=C/C(=O)OC(C)(C)C"
  Qualitative Label: "active"
- Compound: "CC(=O)O[C@@H]1C[C@@H]2CC[C@@]1(C)C2(C)C"
  Qualitative Label: "inactive"
- Compound: "CCCCNc1c(C(=O)OCC)c(C)nc2c1cnn2CC"
  Qualitative Label: "active"
- Compound: "CCCCOC(=O)C(C)CC (stereo not given)"
  Qualitative Label: "inactive"
- Compound: "COc1cc(C(C)C)c2c(c1)S(=O)(=O)N(COc1cc(=O)n3cccc(OCCN4CCCCC4)c3n1)C2=O"
  Qualitative Label: "active"
- Compound: "CC1(C)COCN1"
  Qualitative Label: "inactive"
- Compound: "Oc1cc2ccccc2cc1O"
  Qualitative Label: "inactive"
- Compound: "CC1CCCCC1"
  Qualitative Label: "inactive"

----------
# Experiment Notes: qHTS RealTime-Glo MT Cell Viability Assay in HepG2 cells - 40 hour (AID 1224870); further: on the % scale 0 is the no-effect control and ±100 the full control effect; nearly all actives have a fitted effect of over 50% in size
# Condition Description: RealTime-Glo luminescence; series mostly up to 76.8 µM
Results filed as inconclusive are left out. Activity calls are given as the source filed them. Calls follow the shape of the dose curve; as a rule, active = well fitted cell-killing curve with a large enough effect in the repeat runs; inconclusive = weak or mixed curves, or effect the other way; inactive = flat fitted curve, though single readings scatter.

- Molecule: "CCC(=O)CC(C)CC (stereo unspecified)"
  activity change, negative = cytotoxic: "-5.05% [at 0.29 µM] (inactive)"
- Molecule: "C=C/C=C/C=C/CCCCC"
  activity change, negative = cytotoxic: "24.6% [at 15.8 µM] (inactive)"
- Molecule: "COc1cc(C(C)C)c2c(c1)S(=O)(=O)N(COc1cc(=O)n3cccc(OCCN4CCCCC4)c3n1)C2=O"
  activity change, negative = cytotoxic: "-2.06% [at 15.8 µM] (inactive)"
- Molecule: "O=S(O)O"
  activity change, negative = cytotoxic: "-0.0421% [at 15.8 µM] (inactive)"
- Molecule: "S=C(SSSSSSC(=S)N1CCCCC1)N1CCCCC1"
  activity change, negative = cytotoxic: "-10.6% [at 15.8 µM] (inactive)"
- Molecule: "C=CC(=C)CC/C=C(\\C)CCC=C(C)C"
  activity change, negative = cytotoxic: "-6.2% [at 15.8 µM] (inactive)"

----------
# Experiment Notes: qHTS RealTime-Glo MT Cell Viability Assay in HepG2 cells - 32 hour (AID 1224877); further: nearly all actives have a fitted effect of over 55% in size
# Condition Description: RealTime-Glo luminescence; series mostly up to 76.8 µM
Inconclusive results are not listed. The source made the active and inactive calls. Calls follow the shape of the dose curve; as a rule, active = well fitted cell-killing curve with a large enough effect in the repeat runs; inconclusive = weak or mixed curves; inactive = flat fitted curve, though single readings scatter.
Labels: active, inactive

- Compound: "CCCCCCCCCCOCC(O)CN (stereo not given)"
  Qualitative Label: "active"
- Compound: "Cc1ccc2ccc3cccc4ccc1c2c34"
  Qualitative Label: "inactive"
- Compound: "CCOB(OCC)OCC"
  Qualitative Label: "inactive"
- Compound: "CCCCNc1c(C(=O)OCC)c(C)nc2c1cnn2CC"
  Qualitative Label: "inactive"
- Compound: "O=C(O)c1cccc(Cl)n1"
  Qualitative Label: "inactive"
- Compound: "C=CC(C)C#N (stereo not given)"
  Qualitative Label: "inactive"
- Compound: "CC1=C(/C=C/C(C)=C/C=C/C(C)=C\\C=O)C(C)(C)CCC1"
  Qualitative Label: "inactive"
- Compound: "Cc1ccc(O)cn1"
  Qualitative Label: "inactive"
- Compound: "CCO[Si](CCCSSSSCCC[Si](OCC)(OCC)OCC)(OCC)OCC"
  Qualitative Label: "inactive"
- Compound: "CCCCCCCCCCCCCOP(=O)(O)O"
  Qualitative Label: "inactive"
- Compound: "Cc1cncc(C)c1"
  Qualitative Label: "inactive"
- Compound: "c1cc[nH]c1"
  Qualitative Label: "inactive"
- Compound: "Cc1cnccn1"
  Qualitative Label: "inactive"
- Compound: "COc1cccc(CCc2ccccc2OCC(CN(C)C)OC(=O)CCC(=O)O)c1 (stereo not given)"
  Qualitative Label: "inactive"
- Compound: "COCC(=O)O[C@]1(CCN(C)CCCc2nc3ccccc3[nH]2)CCc2cc(F)ccc2[C@@H]1C(C)C"
  Qualitative Label: "active"
- Compound: "CC(=O)Oc1ccc(C2(c3ccc(OC(C)=O)cc3)C(=O)Nc3ccccc32)cc1"
  Qualitative Label: "inactive"
- Compound: "CO[Si](CCCNCCNCCN)(OC)OC"
  Qualitative Label: "inactive"
- Compound: "C[Si](C)(C)Cl"
  Qualitative Label: "inactive"
- Compound: "CCCCCCCOC(=O)c1ccc(O)cc1"
  Qualitative Label: "inactive"
- Compound: "Cc1cn[nH]c1"
  Qualitative Label: "inactive"
- Compound: "c1ccc(Sc2ccccc2)cc1"
  Qualitative Label: "inactive"
- Compound: "CCCCOCC"
  Qualitative Label: "inactive"
- Compound: "C=C(C)CCCC"
  Qualitative Label: "inactive"
- Compound: "NC(=O)C(=O)N/N=C/c1ccc([N+](=O)[O-])o1"
  Qualitative Label: "inactive"
- Compound: "NCCCC(O)(P(=O)(O)O)P(=O)(O)O"
  Qualitative Label: "inactive"
- Compound: "O=C[C@H](O)[C@H](O)[C@H](O)CO"
  Qualitative Label: "inactive"
- Compound: "CCCCCCS"
  Qualitative Label: "inactive"
- Compound: "CC(=O)c1ccccc1N"
  Qualitative Label: "inactive"
- Compound: "CCOCOCC"
  Qualitative Label: "inactive"
- Compound: "CO[C@H]1C=CO[C@@]2(C)Oc3c(C)c(O)c4c(O)c(cc(O)c4c3C2=O)NC(=O)/C(C)=C\\C=C/[C@H](C)[C@H](O)[C@@H](C)[C@@H](O)[C@@H](C)[C@H](OC(C)=O)[C@@H]1C"
  Qualitative Label: "inactive"
- Compound: "O=C1NCN(c2ccccc2)C12CCN(CCCC(c1ccc(F)cc1)c1ccc(F)cc1)CC2"
  Qualitative Label: "active"
- Compound: "Clc1ccc(C(Cn2ccnc2)OCc2c(Cl)cccc2Cl)c(Cl)c1 (stereo not given)"
  Qualitative Label: "inactive"
- Compound: "CCc1cccc(CC)c1NC(=O)C(=O)O"
  Qualitative Label: "inactive"
- Compound: "CCCCCCCC/C=C\\CCCCCCCC(=O)NCc1ccc(O)c(OC)c1"
  Qualitative Label: "inactive"
- Compound: "[O]=[Zr]"
  Qualitative Label: "inactive"
- Compound: "Brc1ccccc1-c1ccccc1"
  Qualitative Label: "inactive"
- Compound: "CCCCCCCC/C=C/CCCOC(C)=O"
  Qualitative Label: "inactive"
- Compound: "O=C(Oc1ccccc1)c1cccc(C(=O)Oc2ccccc2)c1"
  Qualitative Label: "inactive"
- Compound: "O=C(O)CCn1c2c(c3ccccc31)C[C@H](NS(=O)(=O)c1ccc(F)cc1)CC2"
  Qualitative Label: "inactive"
- Compound: "CN(C)CCCN1c2ccccc2CCc2ccccc21"
  Qualitative Label: "inactive"
- Compound: "CCN(CC)c1cccc(C)c1"
  Qualitative Label: "inactive"
- Compound: "COc1ccc(-n2nc(CCC(=O)N(C)O)cc2-c2ccc(Cl)cc2)cc1"
  Qualitative Label: "inactive"
- Compound: "NCCCCCCNCCCCCCN"
  Qualitative Label: "inactive"
- Compound: "O=S(=O)(O)CCCN1CCOCC1"
  Qualitative Label: "inactive"
- Compound: "CN1CCN(C2Cc3ccccc3Sc3ccc(Cl)cc32)CC1 (stereo not given)"
  Qualitative Label: "active"
